MIC values by entry
Tested on: Candida albicans
Assay: Antifungal activity against Candida albicans ATCC 10231 incubated for 16 to 20 hrs
Assay type: functional
Conditions: time 16-20 hrs

| Substance Smiles | MIC |
| --- | --- |
| CCCCCCC[C@@H]1CC(=O)N[C@H](CC(C)C)C(=O)N[C@@H](CO)C(=O)N[C@@H]([C@@H](C)O)C(=O)N[C@H](Cc2ccccc2)C(=O)N[C@@H]([C@H](C)CC)C(=O)O1 | > 128 µg/mL |
| CCCCCCCCC[C@@H]1CC(=O)N[C@H](CC(C)C)C(=O)N[C@@H](CO)C(=O)N[C@@H]([C@@H](C)O)C(=O)N[C@H](Cc2ccccc2)C(=O)N[C@@H]([C@H](C)CC)C(=O)O1 | > 128 µg/mL |

// switching to the query compound
# input Supply MIC measured with Candida albicans for CCCCCCC[C@@H]1CC(=O)N[C@H](CC(C)C)C(=O)N[C@@H](CO)C(=O)N[C@@H]([C@@H](C)O)C(=O)N[C@H](Cc2ccc(O)cc2)C(=O)N[C@@H](C(C)C)C(=O)O1 .
# output > 128 µg/mL

====

Tested on: Candida albicans
Assay: Antifungal activity against Candida albicans ATCC 10231 incubated for 16 to 20 hrs
Format: functional
Settings: time 16-20 hrs
Reported Metric: MIC

Worked examples, 2 molecules total:
| Substance Smiles | Result |
| --- | --- |
| C[C@@H]1[C@H](O)[C@@H](C)/C=C/C=C/C=C/C=C/C=C/C=C/C=C/[C@H](O[C@@H]2O[C@H](C)[C@@H](O)[C@H](N)[C@@H]2O)C[C@@H]2O[C@](O)(C[C@@H](O)C[C@@H](O)[C@H](O)CC[C@@H](O)C[C@@H](O)CC(=O)O[C@H]1C)C[C@H](O)[C@H]2C(=O)O | 0.5 µg/mL |
| CCCCCCC[C@@H](O)CC(=O)N[C@H](CC(C)C)C(=O)N[C@@H](CO)C(=O)N[C@H](C(=O)N[C@H](Cc1ccccc1)C(=O)N[C@H](C(=O)OC)[C@H](C)CC)[C@@H](C)O | > 128 µg/mL |

--- query ---
# input // fetch MIC given entry CCCCCC/C=C\C[C@@H]1CC(=O)N[C@H](CC(C)C)C(=O)N[C@@H](CO)C(=O)N[C@@H]([C@@H](C)O)C(=O)N[C@H](Cc2ccccc2)C(=O)N[C@@H]([C@H](C)CC)C(=O)O1
# output > 128 µg/mL

====

Tested on: Aspergillus fumigatus
Assay: Antifungal activity against Aspergillus fumigatus HIC6094 incubated for 16 to 20 hrs
Assay type: functional
Conditions: time 16-20 hrs
Reported Metric: MIC

Solved entries (count: 5):
| Compound | MIC |
| --- | --- |
| CCCCCCCCC[C@@H]1CC(=O)N[C@H](CC(C)C)C(=O)N[C@@H](CO)C(=O)N[C@@H]([C@@H](C)O)C(=O)N[C@H](Cc2ccccc2)C(=O)N[C@@H]([C@H](C)CC)C(=O)O1 | > 128 µg/mL |
| CCCCCCC[C@@H](O)CC(=O)N[C@H](CC(C)C)C(=O)N[C@@H](CO)C(=O)N[C@H](C(=O)N[C@H](Cc1ccccc1)C(=O)N[C@H](C(=O)OC)[C@H](C)CC)[C@@H](C)O | > 128 µg/mL |
| CCCCCCC[C@@H]1CC(=O)N[C@H](CC(C)C)C(=O)N[C@@H](CO)C(=O)N[C@@H]([C@@H](C)O)C(=O)N[C@H](Cc2ccc(O)cc2)C(=O)N[C@@H](C(C)C)C(=O)O1 | > 128 µg/mL |
| CCCCCCC[C@@H]1CC(=O)N[C@H](CC(C)C)C(=O)N[C@@H](CO)C(=O)N[C@@H]([C@@H](C)O)C(=O)N[C@H](Cc2ccccc2)C(=O)N[C@@H]([C@H](C)CC)C(=O)O1 | > 128 µg/mL |
| CCCCCC/C=C\C[C@@H]1CC(=O)N[C@H](CC(C)C)C(=O)N[C@@H](CO)C(=O)N[C@@H]([C@@H](C)O)C(=O)N[C@H](Cc2ccccc2)C(=O)N[C@@H]([C@H](C)CC)C(=O)O1 | > 128 µg/mL |

# input Look up and state reported MIC for C[C@@H]1[C@H](O)[C@@H](C)/C=C/C=C/C=C/C=C/C=C/C=C/C=C/[C@H](O[C@@H]2O[C@H](C)[C@@H](O)[C@H](N)[C@@H]2O)C[C@@H]2O[C@](O)(C[C@@H](O)C[C@@H](O)[C@H](O)CC[C@@H](O)C[C@@H](O)CC(=O)O[C@H]1C)C[C@H](O)[C@H]2C(=O)O [AMPHOTERICIN B]
# output 1 µg/mL
